target: Beta-3 adrenergic receptor (Rattus norvegicus); experiment: Inhibition of beta-3 adrenergic receptor GDP binding in rat brown adipose tissue on oral administration relative to isoprenaline; format: tissue-based
Give ED50 for every item shown.
Hi! Could you send only the number? It should be in mg/kg, unit omitted.

Looking up COC(=O)COc1ccc(CC(C)NCC(O)c2cccc(Cl)c2)cc1 (centres undefined) , I found its ED50 recorded as 0.007

Looking up COC(=O)COc1ccc(OCCNCC(O)COc2ccccc2F)cc1.Cl (centres undefined) , I found its ED50 recorded as 0.54

Looking up COC(=O)COc1cccc(OCCNCC(O)COc2ccccc2)c1 (centres undefined) , I found its ED50 recorded as 5.28

Looking up COC(=O)COc1ccc(CCNCC(O)COc2ccccc2)cc1 (centres undefined) , I found its ED50 recorded as 0.078

Looking up COC(=O)c1ccc(CC(C)NCC(O)c2ccccc2)cc1 (centres undefined) , I found its ED50 recorded as 0.94

Looking up Cl.O=C(O)COc1ccc(OCCNC[C@H](O)COc2ccccc2)cc1 , I found its ED50 recorded as 0.45

Looking up COC(=O)COc1ccc(OCCNCC(O)COc2ccccc2)cc1 (centres undefined) , I found its ED50 recorded as 0.12

Looking up O=C(O)COc1ccc(OCCNCC(O)COc2ccccc2)cc1 (centres undefined) , I found its ED50 recorded as 3.5

Looking up CC(C)(C)OC(=O)COc1ccc(OCCNCC(O)COc2ccccc2)cc1 (centres undefined) , I found its ED50 recorded as 0.25
